Test system: relapsed AML cells
testDetails: Drug sensitivity assay, 1,536-well, 3-day culture with individual approved drugs at 10 μM, viability by alamarBlue
Format: cell-based, human
studyConditions: number of relapsed AML cases out of 18 tested with >70% cell death; 10 μM, 3-day culture
propertyName: #Cases >70% cell death
API note: the answer field is a bare number with no unit suffix.

Per the record, CS(=O)(=O)CCNCc1ccc(-c2ccc3ncnc(Nc4ccc(OCc5cccc(F)c5)c(Cl)c4)c3c2)o1 [LAPATINIB] has #Cases >70% cell death of 2

Per the record, CC[C@@H]1/C=C(\C)C[C@H](C)C[C@H](OC)[C@H]2O[C@@](O)(C(=O)C(=O)N3CCCC[C@H]3C(=O)O[C@H](/C(C)=C/[C@@H]3CC[C@H](Cl)[C@H](OC)C3)[C@H](C)[C@@H](O)CC1=O)[C@H](C)C[C@@H]2OC [PIMECROLIMUS] has #Cases >70% cell death of 2

Per the record, CCc1ccc(CCOc2ccc(CC3SC(=O)NC3=O)cc2)nc1 (stereo not shown) [PIOGLITAZONE] has #Cases >70% cell death of 8

Per the record, COC(=O)Nc1nc2cc(C(=O)c3ccc(F)cc3)ccc2[nH]1 [FLUBENDAZOLE] has #Cases >70% cell death of 2

The measurements presented in this section are drawn from patent US20210405025A1.
